This collection of values is drawn from patent US7888510B2.

experimentalReadout: melting point (°C)

| molecule | unitsText | melting point |
| --- | --- | --- |
| Cc1ccc(NC2CCN(CC(=O)Nc3ccccc3)CC2)c(CO)c1 [Example 7a] | °C | 128 |
| Cc1ccc(NC2CCN(CC(=O)Nc3ccc4c(c3)-c3ccccc3C4O)CC2)c(CO)c1 (stereo not shown) [Example 4a] | °C | 124 |

[a] Cc1cccc(CO)c1NC1CCN(CC(=O)Nc2ccc3c(c2)-c2ccccc2C3=O)CC1 [Example 3a]
[b] COC(=O)c1ccccc1NC1CCN(CC(=O)Nc2ccc3c(c2)-c2ccccc2C3=O)CC1.Cl
Between a and b , whose recorded melting point is greater? Answer by quoting the chosen item's label.
b
(b: 258 °C, a: 113 °C)
